Sourced from patent US9199948B2

- Tested on: Arachidonoylethanolamide Transport (AEAT) in U937 cells
- assayRemarks: Cellular uptake of [3H]-AEA (inhibition of arachidonoylethanolamide transport, AEAT)
- Type: cell-based
- condition: Homo sapiens, U-937, 100 nM AEA, 15 min pre-incubation, 15 min uptake at 37° C.
outcomeMeasure: EC50
Please report the result as a number followed by the unit.

Output EC50 of "CCCCCCC/C=C/C=C/CNC(=O)c1ccc2oc(=O)[nH]c2c1"
146 nM

Continuing:
Output EC50 of "Cn1c(=O)oc2ccc(NC(=O)/C=C/C=C/CCc3ccccc3)cc21"
112 nM
